EXPERIMENTAL_TARGET: Wee1 kinase domain (Homo sapiens)
Construct: Wee1 kinase domain was purchased from Carna (catalog #05-177); purchased Carna 05-177
Sequence (P30291 299-569 limits assumed): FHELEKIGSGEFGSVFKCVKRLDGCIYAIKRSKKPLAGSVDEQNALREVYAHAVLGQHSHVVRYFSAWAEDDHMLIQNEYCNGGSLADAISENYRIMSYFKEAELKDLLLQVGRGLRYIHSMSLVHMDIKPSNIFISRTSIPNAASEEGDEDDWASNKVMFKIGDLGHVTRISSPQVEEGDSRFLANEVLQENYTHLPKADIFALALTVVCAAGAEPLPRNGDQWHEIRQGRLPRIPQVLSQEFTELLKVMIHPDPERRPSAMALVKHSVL
METHOD_NOTES: Wee1 Kinase Biochemical Assay (ADP-Glo)
CONDITION_NOTES: Wee1 kinase domain, 15 uM ATP, ADP-Glo
The following molecules are shown together with reported IC50 values.

# annotated cases, reported IC50 shown
CC1(C)C[C@H]2N(c3cccc(N=S(C)(C)=O)n3)c3nc(Nc4cnn(C5CCOCC5)c4)ncc3[C@@]2(C)CO1 (single isomer, unassigned) = < 0.01 µM
CNCc1cccc(N2c3nc(Nc4ccc(S(C)(=O)=O)cc4)ncc3[C@@]3(C)COC(C)(C)C[C@@H]23)n1 (single isomer, unassigned) = < 0.01 µM
CN1CC[C@@](C)(c2ccc(Nc3ncc4c(n3)N(c3cccc(N=S(C)(C)=O)n3)[C@H]3CC(C)(C)OC[C@@]43C)cc2)C1 (single isomer, unassigned) = 0.01 to 0.1 µM
CC1(C)C[C@H]2N(c3cccc(N=S(C)(C)=O)n3)c3nc(Nc4ccc(C5CNC5)nc4)ncc3[C@@]2(C)CO1 (single isomer, unassigned) = < 0.01 µM

In: Record lookup: for Wee1 kinase domain (Homo sapiens), what IC50 belongs to CN1CC[C@H](n2ccc(Nc3ncc4c(n3)N(c3cccc(N=S(C)(C)=O)n3)[C@@H]3CC(C)(C)OC[C@]43C)n2)C1 (single isomer, unassigned) ?
Out: < 0.01 µM
